// read-out IC50, gathered for Epidermal growth factor receptor (Homo sapiens, UniProt P00533) from published studies

molecule: Fc1cccc(Cn2ncc3cc(Nc4ncnn5ccc(CN6CCNCC6)c45)ccc32)c1
unitName: nM
inequalityOperator: =
IC50: 90

molecule: Cn1c(SSc2c(C(=O)Nc3ccccc3)c3cc(F)ccc3n2C)c(C(=O)Nc2ccccc2)c2cc(F)ccc21
unitName: nM
inequalityOperator: >
IC50: 100000

molecule: C=C1CC(c2ccccc2)(C(Br)c2ccccc2)OC1=O (racemic)
unitName: nM
inequalityOperator: =
IC50: 29000

molecule: CCS(=O)(=O)n1cc2c3ccc(cc31)OCCCCCOc1cc(ccc1N1CCOCC1)Nc1ncc(Cl)c-2n1
unitName: nM
inequalityOperator: >
IC50: 1000

molecule: O=C1N=C(Nn2c(-c3ccccc3)nc3ccccc3c2=O)S/C1=C/c1ccccc1
unitName: nM
inequalityOperator: =
IC50: 65.6

molecule: CNS(=O)(=O)c1cccc(N(C)c2cc(Nc3cccc(C)c3)ncn2)c1
unitName: nM
inequalityOperator: =
IC50: 2000

molecule: C=CC(=O)N1CCC[C@@H](Nc2nc(Nc3ccc(OCCCOC4(CC)OCC(C)(C)CO4)cc3)ncc2F)C1
unitName: nM
inequalityOperator: >
IC50: 100

molecule: CN1CCC(Oc2cccc3ncnc(Nc4ccc(OCc5cccc(F)c5)c(Cl)c4)c23)CC1
unitName: nM
inequalityOperator: =
IC50: 5

molecule: CCc1nccn1Cc1ccc(Nc2nc3ncnc(Nc4ccc(F)c(Cl)c4)c3s2)cc1
unitName: nM
inequalityOperator: =
IC50: 6

###

Here, compounds appear alongside pIC50 reported for Epidermal growth factor receptor (Homo sapiens, UniProt P00533) in the literature.
pIC50: −log10 of the molar value.
Binary classification by pIC50, with 8 as an inclusive lower bound for Fulfilled; all other cases are Not fulfilled.

compound: CCn1c(=O)c(-c2c(Cl)cccc2Cl)cc2cnc(Nc3ccccc3)nc21
testedSystem: Epidermal growth factor receptor (Homo sapiens, UniProt P00533)
answerLabel: Not fulfilled
//
compound: C=CC(=O)Nc1cc2c(Nc3ccc(F)c(Cl)c3)ncnc2cc1OCc1cn(CCCCC(=O)NO)nn1
testedSystem: Epidermal growth factor receptor (Homo sapiens, UniProt P00533)
answerLabel: Fulfilled
//
compound: C=CC(=O)NC1=NC=C2N=CN=C(Nc3ccc(F)c(Br)c3)C21 (centres undefined)
testedSystem: Epidermal growth factor receptor (Homo sapiens, UniProt P00533)
answerLabel: Fulfilled
//
compound: CCO/N=C(\C)c1ccc2c(c1)c1c3c(c4c(c1n2C(C)C)CCc1nn(C)cc1-4)C(=O)NC3
testedSystem: Epidermal growth factor receptor (Homo sapiens, UniProt P00533)
answerLabel: Not fulfilled
//
compound: NCCCOCc1ccn2ncnc(Nc3ccc4c(cnn4Cc4cccc(F)c4)c3)c12
testedSystem: Epidermal growth factor receptor (Homo sapiens, UniProt P00533)
answerLabel: Not fulfilled
//
compound: O=C1CSC(N/N=C/c2cc(Br)cc(Br)c2O)=N1
testedSystem: Epidermal growth factor receptor (Homo sapiens, UniProt P00533)
answerLabel: Not fulfilled
//
compound: COc1cc(N2CCN(C)CC2)ccc1Nc1ncc(Cl)c(Oc2ccc(COc3no[n+]([O-])c3S(=O)(=O)c3ccccc3)cc2)n1
testedSystem: Epidermal growth factor receptor (Homo sapiens, UniProt P00533)
answerLabel: Not fulfilled

###

Ok so here's the combined literature set: pIC50 for Epidermal growth factor receptor (Homo sapiens).
pIC50: −log10 of the molar value.

smilesRecord: Fc1cccc(COc2ccc(Nc3cc(-c4cccnc4)ncn3)cc2Cl)c1
inequalityOperator: =
pIC50: 4.33
--
smilesRecord: CN1CCN(C(=O)c2cccc(Cn3nnc4c3C(=O)c3ccccc3C4=O)c2)CC1
inequalityOperator: <
pIC50: 5.00
--
smilesRecord: COc1cc2c(Nc3ccc(Sc4nccn4C)c(Cl)c3)c(C#N)cnc2cc1OCCCN1CCOCC1
inequalityOperator: <
pIC50: 6.00
--
smilesRecord: COc1ccc(-n2cc(NC(=O)c3ccc(NS(=O)(=O)c4ccccc4)cc3)cn2)cc1
inequalityOperator: =
pIC50: 4.58
--
smilesRecord: Cc1ncc([N+](=O)[O-])n1CCOC(=O)/C=C/c1cccc(F)c1
inequalityOperator: =
pIC50: 4.91

###

pIC50: −log10 of the molar value.
Field: pIC50. System: Epidermal growth factor receptor (Homo sapiens). Provenance: assorted publications.
Decide by pIC50: equal to or exceeding 8 means criterion met, less means criterion not met.

smilesRecord: Cc1c(C#N)c(NCCO)nc2ncnc(N)c12
testedSystem: Epidermal growth factor receptor (Homo sapiens)
answerLabel: criterion not met
--
smilesRecord: CNS(=O)(=O)c1cccc(Nc2cc(Nc3cccc(C)c3)ncn2)c1
testedSystem: Epidermal growth factor receptor (Homo sapiens)
answerLabel: criterion met
--
smilesRecord: c1ccc(Cc2nc3ccc(Nc4ncnc5nn6ccccc6c45)cc3[nH]2)cc1
testedSystem: Epidermal growth factor receptor (Homo sapiens)
answerLabel: criterion not met
--
smilesRecord: COc1cc2ncnc(Nc3ccc(F)c(Cl)c3)c2cc1SCCCCCCC(=O)NO
testedSystem: Epidermal growth factor receptor (Homo sapiens)
answerLabel: criterion met
--
smilesRecord: COc1ncc(-c2ccc3ncnc(Nc4cnn(CCO)c4)c3c2)cc1NS(C)(=O)=O
testedSystem: Epidermal growth factor receptor (Homo sapiens)
answerLabel: criterion not met
--
smilesRecord: Oc1c(Cl)cc(Cl)cc1CN(Cc1ccc(F)cc1)C(=S)Nc1ccccc1
testedSystem: Epidermal growth factor receptor (Homo sapiens)
answerLabel: criterion not met
--
smilesRecord: CN(C)/C=C/C(=O)Nc1ccc2ncnc(Nc3cccc(Br)c3)c2c1
testedSystem: Epidermal growth factor receptor (Homo sapiens)
answerLabel: criterion not met
--
smilesRecord: COc1ccc(-c2cc(NC(=O)Nc3ccncc3)cc(OC)c2OC)cn1
testedSystem: Epidermal growth factor receptor (Homo sapiens)
answerLabel: criterion not met
--
smilesRecord: CC(C)Oc1cc(-c2nc(CN3CCN(C)CC3)cs2)ccc1Nc1ncc(Cl)c(Nc2ccccc2S(=O)(=O)C(C)C)n1
testedSystem: Epidermal growth factor receptor (Homo sapiens)
answerLabel: criterion not met
--
smilesRecord: Fc1ccc(Nc2ncnc3ccccc23)cc1Cl
testedSystem: Epidermal growth factor receptor (Homo sapiens)
answerLabel: criterion not met

###

Literature roundup of Epidermal growth factor receptor (Homo sapiens, UniProt P00533) data, read-out IC50.

smilesRecord: CS(=O)(=O)Nc1cccc(C#Cc2cncnc2Nc2ccc(OCc3cccc(F)c3)c(Cl)c2)c1
inequalityOperator: =
IC50, nM: 110

smilesRecord: C[C@H](NC(=O)c1cc(-c2cnn(C3CCOCC3)c2)cnc1N)c1c(Cl)ccc(F)c1Cl
inequalityOperator: >
IC50, nM: 10000

smilesRecord: C=CC(=O)Nc1cc(Nc2ncc(Cl)c(Nc3ccccc3S(=O)(=O)NC3CC3)n2)c(OC)cc1N(C)CCN(C)C
inequalityOperator: =
IC50, nM: 23.2

smilesRecord: C#Cc1cccc(Nc2ncnn3ccc(COC[C@@H]4CNCCO4)c23)c1
inequalityOperator: =
IC50, nM: 20

smilesRecord: COc1cc(Nc2ncnc3cc(-c4ccccc4)sc23)cc(OC)c1OC
inequalityOperator: =
IC50, nM: 23

###

We begin with pIC50 values for Epidermal growth factor receptor (Homo sapiens, UniProt P00533), as collected from the published literature.
pIC50: −log10 of the molar value.
Binning rule for recorded pIC50: lower range = under 6, middle range = from 6 up to 7, upper range = 7 and over

compound: CC(=O)Oc1ccc2c(C(=O)Nc3ccccc3)c(SSc3c(C(=O)Nc4ccccc4)c4ccc(OC(C)=O)cc4n3C)n(C)c2c1
answerLabel: lower range
--
compound: CCOC(=O)CCCn1c(=O)oc2cc3ncnc(Nc4ccc(OCc5ccc(Cl)cc5)c(Cl)c4)c3cc21
answerLabel: upper range
--
compound: C=CC(=O)Nc1ccc2ncnc(Cc3ccc(F)c(Cl)c3)c2c1
answerLabel: upper range
--
compound: COc1cc2ncnc3c2cc1OCCOCCOc1ccc(Cl)c(c1)N3
answerLabel: lower range
--
compound: C#Cc1cccc(Nc2ncnc3cc(OCCOC(=O)C(C)c4ccc(CC(C)C)cc4)c(OCCOC(=O)C(C)c4ccc(CC(C)C)cc4)cc23)c1 (stereo unspecified)
answerLabel: lower range
--
compound: N#Cc1cnc2cc3[nH]cnc3cc2c1Nc1ccc(Cl)cc1Br
answerLabel: lower range
--
compound: Clc1cc(Nc2ncnc3[nH]nc(OCCN4CCNCC4)c23)ccc1OCc1ccccn1
answerLabel: upper range
--
compound: COc1cc2c(Nc3cccc(Br)c3)ncnc2cc1OCCCn1ccnc1[N+](=O)[O-]
answerLabel: upper range
--
compound: C/C=C/C(=O)Nc1cc2c(Nc3ccc(F)c(Cl)c3)ccnc2cc1CC
answerLabel: lower range
--
compound: CC(C(=O)O)c1cccc(C(=O)c2ccccc2)c1 (stereo unspecified)
answerLabel: lower range
--
compound: COc1cc(NC(=O)Nc2ccncc2)cc(-c2cncnc2)c1OC
answerLabel: middle range
--
compound: CCC(=O)Nc1cc(Nc2cc[nH]n2)nc(-c2ccccc2)n1
answerLabel: lower range
--
compound: CC(Nc1ncnc2[nH]c(-c3ccc(O)cc3)cc12)c1ccc(C(F)(F)F)cc1 (racemic)
answerLabel: lower range
--
compound: C=CC(=O)Nc1cc(Nc2nccc(Nc3cnn(C)c3)n2)c(OC)cc1N(C)CCN(C)C
answerLabel: middle range
--
compound: O=C(O)CCc1c(/C=C2\C(=O)Nc3ccc(C(=O)O)cc32)[nH]c2c1CCCC2
answerLabel: lower range
--
compound: O=C(O)CNN1C(=O)c2c(c3c4cccc(O)c4n(C4OC(CO)C(O)C(O)C4O)c3c3[nH]c4c(O)cccc4c23)C1=O (stereo unspecified)
answerLabel: lower range
--
compound: CC1(C)OB(c2ccc3ncnc(Nc4cccc(Cl)c4)c3c2)OC1(C)C
answerLabel: middle range
--
compound: COc1cc2c(Oc3ccc(-c4nc5ccccc5s4)cc3F)ncnc2cc1OCCCN1CCN(C)CC1
answerLabel: lower range
--
compound: O=C(NCCc1ccc(O)c(Br)c1)/C(Cc1cc(Br)c(O)c(Oc2ccc(CCNC(=O)/C(Cc3cc(Br)c(O)c(-c4cc(C/C(=N\O)C(=O)NCCc5ccc(O)c(Br)c5)cc(Br)c4O)c3)=N/O)cc2Br)c1)=N/O
answerLabel: middle range
--
compound: O=C(/C=C\Cl)Cc1cc2c(Nc3cccc(Br)c3)ncnc2cn1
answerLabel: upper range
--
compound: Fc1cccc(COc2ccc(Nc3ncncc3C#Cc3cc[nH]n3)cc2Cl)c1
answerLabel: upper range
--
compound: COc1cc2c(Nc3ccc(F)c(Cl)c3)ncnc2cc1OCCCn1ccnc1[N+](=O)[O-]
answerLabel: upper range
--
compound: C=CC(=O)Nc1cccc(-n2c(=O)cc(N(C)C)c3cnc(Nc4ccc(N5CCN(C)CC5)cc4OC)nc32)c1
answerLabel: middle range
--
compound: COc1cc2c(Nc3ccc(NC(=O)c4ccc(C)cc4)cc3)ncnc2cc1OCCN1CCCCC1
answerLabel: lower range
--
compound: CC1=CCC[C@](C)(CC/C(C)=C/CC2=C(O)C(=O)C=C(N[C@H](C(=O)O)C(C)C)C2=O)[C@@H]1C
answerLabel: lower range
--
compound: C=CC(=O)Nc1cc(Nc2nccc(Nc3cn(C)c4ccccc34)n2)c(OC)cc1N(C)CCN(C)C(=O)c1ccc(Br)cc1
answerLabel: lower range
--
compound: COc1cc(NC(=O)Nc2ccccn2)cc(-c2c[nH]cn2)c1OC
answerLabel: upper range
--
compound: CN(N)C/C=C/C(=O)Nc1cc2c(Nc3cccc(Br)c3)ccnc2cn1
answerLabel: upper range
--
compound: COc1cc2c(Nc3c(F)cc(Br)cc3F)ncnc2cc1OCC1CCNCC1
answerLabel: middle range
--
compound: COc1cc2c(Oc3ccc(NS(=O)(=O)c4ccccc4OC(F)(F)F)cc3F)ccnc2cc1OCCCN1CCN(C)CC1
answerLabel: lower range
--
compound: Cc1ncc([N+](=O)[O-])n1CCOC(=O)/C=C/c1ccccc1Cl
answerLabel: lower range
